# assayed-target: T1, human FGFR3b expressed with a C-terminal murine Fc tag (hFGFR3b.mFc) (human)
# T1 construct: called dimeric; also called REGN3153; dimeric human FGFR3b
# T1 chain: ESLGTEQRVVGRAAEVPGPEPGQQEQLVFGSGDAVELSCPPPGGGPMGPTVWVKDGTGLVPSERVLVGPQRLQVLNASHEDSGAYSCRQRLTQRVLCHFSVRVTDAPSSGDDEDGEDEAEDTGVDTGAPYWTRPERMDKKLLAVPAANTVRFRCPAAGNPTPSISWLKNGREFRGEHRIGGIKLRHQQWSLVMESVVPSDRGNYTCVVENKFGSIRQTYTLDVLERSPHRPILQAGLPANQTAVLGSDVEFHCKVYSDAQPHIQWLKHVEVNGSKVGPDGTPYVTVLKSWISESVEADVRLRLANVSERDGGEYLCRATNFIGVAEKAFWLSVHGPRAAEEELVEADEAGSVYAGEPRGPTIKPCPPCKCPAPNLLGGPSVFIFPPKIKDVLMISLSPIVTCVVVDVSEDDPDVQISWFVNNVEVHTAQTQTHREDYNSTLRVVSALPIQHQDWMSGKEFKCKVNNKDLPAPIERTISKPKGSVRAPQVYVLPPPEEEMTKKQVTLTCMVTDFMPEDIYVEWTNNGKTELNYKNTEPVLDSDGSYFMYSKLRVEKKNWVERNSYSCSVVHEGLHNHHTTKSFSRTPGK
# test-description: SPR (Biacore), captured mAb, 25 C
measured-parameter: t½
Mention the unit after the number when you answer.

Record request: t½ value, item H4H30045P (antibody, human IgG4 S228P, kappa, V domains shown) VH: QVQLVQSGAEVKKPGASVKVSCKTSGYRFVNYGFSWVRQAPGQGLEWMGWISPYNGNTNYIQNLQDRITMTTDTSTNTAYMELTNLRSDDTAVYYCATLTGVHFDYWGQGTLVTVSS VL: AIQMTQSPSSLSASVGDRVTITCRASQGIRNDLGWYQQKPGKAPNLLIFETSRLQSGVPSRFSGSGSGTDFTLTINSLQPEDFATYYCLQDYNYPWTFGQGTKVEIKR 71.8 min
